system: Wolbachia pipientis; assay: Anti-Wolbachia Cell-Based Screen; format: functional; parameters: scale not given: in the data most compounds retested in dose-response had high values; conditions: 5 µM
Screen size: about 48,000 compounds; about 13,000 (27%) showed an effect of 50% or more. The list shows a part of the results.
Listed below: Percent Effect values for each entry.
observed.property: Percent Effect (%)

[[record]]
compound = "O=C(C1CCOCC1)N1CCc2ncnc(-c3ccc(F)cc3)c2CC1"
observed_property = "Percent Effect"
value = -7.65

[[record]]
compound = "CC(C)(CNC(=O)C(C)(C)Oc1ccc2c(c1)CCCC2=O)C(N)=O"
observed_property = "Percent Effect"
value = -6.308

[[record]]
compound = "Cc1ccc2c(c1)N(C(=O)c1c[nH]c(C)cc1=O)CC(C)O2 (configuration not stated)"
observed_property = "Percent Effect"
value = 67.22

[[record]]
compound = "COc1ccc(NC(=O)c2nc3ccccc3n(C)c2=O)c(OC)c1"
observed_property = "Percent Effect"
value = 115.5

[[record]]
compound = "COc1cccc(NC(=O)NC(C)(C)c2noc(C)n2)c1"
observed_property = "Percent Effect"
value = -4.672

[[record]]
compound = "Cc1nc(CN2C(=O)C[C@@H]3[C@@H]2CCN3Cc2cnn(C)c2)cs1"
observed_property = "Percent Effect"
value = 96.83

[[record]]
compound = "CCc1c(C)nn(CC(=O)NC(C(=O)O)c2c(C)n[nH]c2C)c1C (configuration not stated)"
observed_property = "Percent Effect"
value = 1.191

[[record]]
compound = "CC(=O)N1CCC(c2nccnc2-c2ccc(F)cc2)CC1"
observed_property = "Percent Effect"
value = 97.61

[[record]]
compound = "COc1cc(NC(=O)NCc2ccccn2)cc(OC)c1"
observed_property = "Percent Effect"
value = 6.3

[[record]]
compound = "COc1ccc(Nc2nc3c(C)nn(C)c3c(=O)n2C)c(OC)c1"
observed_property = "Percent Effect"
value = -1.628

[[record]]
compound = "Cc1noc([C@H]2C[C@H]3OCC[C@H]3N(Cc3ccc(F)cc3)C2)n1.O=C(O)C(F)(F)F"
observed_property = "Percent Effect"
value = 9.305

[[record]]
compound = "CNC(=O)CCS(=O)(=O)Cc1nnnn1-c1ccccc1"
observed_property = "Percent Effect"
value = 7.116


====

system: Wolbachia pipientis; test: Anti-Wolbachia Cell-Based Screen; assay type: functional; parameters: scale not given: in the data most compounds retested in dose-response had high values; settings: 5 µM
In all, about 48,000 compounds went through this assay and about 13,000 (27%) showed an effect of 50% or more. Some of the results follow.
# Percent Effect annotations
observed.property: Percent Effect (%)

[[record]]
molecule = "COc1cccc(OC)c1C(=O)NCC(c1cccn1C)N1CCCC1 (centres undefined)"
value = 106.6

[[record]]
molecule = "CCN(C(=O)CNC1CCc2ncnn2C1)C1=CCCCC1 (centres undefined)"
value = -6.833

[[record]]
molecule = "O=C(c1coc2ccccc12)N1CCCC1"
value = 2.375

[[record]]
molecule = "CCCc1nc(CN(CC)C(=O)c2ccc3c(c2)nnn3C)no1"
value = 9.755

[[record]]
molecule = "Cc1ccc(C(C)(O)CNC(=O)c2sccc2Br)o1 (centres undefined)"
value = 16.11

[[record]]
molecule = "COCC1c2nnn(CC3CC3)c2CCN1C(=O)c1cccn1C (centres undefined)"
value = -3.461

[[record]]
molecule = "Cc1cc(NS(=O)(=O)c2c[nH]c3ncccc23)no1"
value = -5.183

[[record]]
molecule = "CNC(=O)[C@@H](c1ccccc1)N1CCC[C@H]1C(=O)NC1CCCCC1.Cl"
value = 13.78

[[record]]
molecule = "CCc1nc(CC(=O)N2CCCC2Cn2cccn2)cs1 (centres undefined)"
value = -8.177


====

Reported Percent Effect values follow for various compounds
system: Wolbachia pipientis; assay: Anti-Wolbachia Cell-Based Screen; assay type: functional; design: scale not given: in the data most compounds retested in dose-response had high values; details: 5 µM
The whole screen tested about 48,000 compounds, of which about 13,000 (27%) showed an effect of 50% or more. The list shows a part of the results.
observed.property: Percent Effect

[[record]]
smiles_code = "Cc1nnc2n1CCN(C(=O)CN1C(=O)CSc3ccccc31)C2"
value = "-16.29%"

[[record]]
smiles_code = "Cc1cnc(N2CCN3C[C@H](OCc4cccc(C)n4)C[C@H]3C2)nc1.O=C(O)C(F)(F)F.O=C(O)C(F)(F)F.O=C(O)C(F)(F)F"
value = "-4.424%"

[[record]]
smiles_code = "C/C=C(\\C)CN1CCC2(CCC(=O)N2OCc2ccccc2F)CC1"
value = "2.227%"

[[record]]
smiles_code = "O=C(COc1coc(CN2CCCC2)cc1=O)NCc1ccccc1Cl"
value = "13.29%"

[[record]]
smiles_code = "Cc1cc(C(=O)N2CCCC2)ccc1NCCO"
value = "-9.298%"

[[record]]
smiles_code = "COc1ccccc1C(=O)NC[C@H]1COCc2nc3c(C)cccc3n21"
value = "-7.945%"

[[record]]
smiles_code = "Cc1ccc(C(=O)N2CCN3C[C@H](Oc4cccc(F)c4)C[C@H]3C2)cn1.O=C(O)C(F)(F)F.O=C(O)C(F)(F)F"
value = "3.581%"


====

tested on: Wolbachia pipientis; assay: Anti-Wolbachia Cell-Based Screen; assay type: functional; parameters: scale not given: in the data most compounds retested in dose-response had high values; details: 5 µM
Screen size: about 48,000 compounds; about 13,000 (27%) showed an effect of 50% or more. This is one part of the list.
Known Percent Effect of a selection of molecules
observed.property: Percent Effect

[[record]]
molecule = "Cc1cc(CN2CCN(C(=O)NC(C)Cn3ccnc3)CC2)no1 (stereo unspecified)"
value = "-2.401%"

[[record]]
molecule = "Cc1ccc(CNC2(Cc3cc(CO)on3)COC2)o1"
value = "-19.01%"

[[record]]
molecule = "Cc1csc(N2CCN(CCCN3CCCC3=O)CC2)n1"
value = "-4.511%"

[[record]]
molecule = "Cc1ccc(N2CCC(CCN3CCCC3=O)CC2)nn1"
value = "86.49%"

[[record]]
molecule = "CC(NC(=O)N1CCCN(Cc2cccs2)CC1)c1cccnc1 (stereo unspecified)"
value = "-8.61%"

[[record]]
molecule = "Cc1cc(CN(C)C(=O)c2cc3c([nH]c2=O)CCCC3=O)no1"
value = "-8.225%"


====

Reported Percent Effect values for a set of compounds
tested on: Wolbachia pipientis; test: Anti-Wolbachia Cell-Based Screen; assay type: functional; design: scale not given: in the data most compounds retested in dose-response had high values; conditions: 5 µM
Hit rate of the full screen: of about 48,000 compounds, about 13,000 (27%) showed an effect of 50% or more. Some of the results follow.
observed.property: Percent Effect (%)

[[record]]
compound = "CC(C(=O)N1CCCC1)N1CCC(c2nccn2Cc2cscn2)CC1 (stereo not given)"
observed_property = "Percent Effect"
value = 9.079

[[record]]
compound = "CC(C)(C)c1nc(CN2CCCC(Cn3cncn3)C2)no1 (stereo not given)"
observed_property = "Percent Effect"
value = 114.7

[[record]]
compound = "O=C(Cc1cccnc1)N1CCC(c2nnc(-c3ccccn3)o2)CC1"
observed_property = "Percent Effect"
value = 116.7

[[record]]
compound = "c1ncn(CCNC2CCCN(Cc3noc(C4CC4)n3)C2)n1 (stereo not given)"
observed_property = "Percent Effect"
value = 10.95

[[record]]
compound = "O=C(CC1CCN(c2ncnc3cccc(F)c23)CC1)N1CCCC1"
observed_property = "Percent Effect"
value = 7.525


====

tested on: Wolbachia pipientis; experiment: Anti-Wolbachia Cell-Based Screen; assay type: functional; set-up: scale not given: in the data most compounds retested in dose-response had high values; conditions: 5 µM
About 13,000 (27%) of roughly 48,000 compounds showed an effect of 50% or more. This is one part of the list.
observed.property: Percent Effect (%)

[[record]]
compound = "O=C(NCC1CC1)[C@H]1CC[C@@H]2[C@@H](CCN2Cc2ccoc2)O1"
observed_property = "Percent Effect"
endpoint_unit = "%"
value = 3.009

[[record]]
compound = "CSc1ccc(NCC(=O)NC(=O)NCC(F)(F)F)cc1F"
observed_property = "Percent Effect"
endpoint_unit = "%"
value = 2.815

[[record]]
compound = "N#Cc1ccccc1C(=O)N1C[C@@H](CN2CCCCCC2)[C@@H](CO)C1"
observed_property = "Percent Effect"
endpoint_unit = "%"
value = -2.218

[[record]]
compound = "Cc1n[nH]c(C)c1CCNC(=O)Nc1ccc2c(c1)COC2"
observed_property = "Percent Effect"
endpoint_unit = "%"
value = -11.47

[[record]]
compound = "CNC(=O)Cn1cc(C#N)c(=O)c2cc(Br)ccc21"
observed_property = "Percent Effect"
endpoint_unit = "%"
value = -8.636

[[record]]
compound = "O=C(NCC1CCOCC1)[C@@H]1C[C@@H]2[C@@H](CCN2Cc2ccoc2)O1"
observed_property = "Percent Effect"
endpoint_unit = "%"
value = 102.5

[[record]]
compound = "CN(C)S(=O)(=O)N1CCN(CC2CCOc3ccccc3C2)CC1 (stereo not drawn)"
observed_property = "Percent Effect"
endpoint_unit = "%"
value = -1.148

[[record]]
compound = "Cc1cc(=O)[nH]c(NCCNC(=O)CN2CCCCCC2)n1"
observed_property = "Percent Effect"
endpoint_unit = "%"
value = 0.3352

